These measurements were taken from ChEMBL document CHEMBL1152626.

Assign pKi to each entry below.
To interpret pKi, take it as minus log10 of a concentration measured in moles per litre.

## Task // fetch pKi for CC(=O)NN1C(=O)N[C@@]2(O[C@H](CO)[C@@H](O)[C@H](O)[C@H]2O)C1=O ; system: Glycogen phosphorylase, muscle form (Oryctolagus cuniculus)
Sequence (P00489 whole entry): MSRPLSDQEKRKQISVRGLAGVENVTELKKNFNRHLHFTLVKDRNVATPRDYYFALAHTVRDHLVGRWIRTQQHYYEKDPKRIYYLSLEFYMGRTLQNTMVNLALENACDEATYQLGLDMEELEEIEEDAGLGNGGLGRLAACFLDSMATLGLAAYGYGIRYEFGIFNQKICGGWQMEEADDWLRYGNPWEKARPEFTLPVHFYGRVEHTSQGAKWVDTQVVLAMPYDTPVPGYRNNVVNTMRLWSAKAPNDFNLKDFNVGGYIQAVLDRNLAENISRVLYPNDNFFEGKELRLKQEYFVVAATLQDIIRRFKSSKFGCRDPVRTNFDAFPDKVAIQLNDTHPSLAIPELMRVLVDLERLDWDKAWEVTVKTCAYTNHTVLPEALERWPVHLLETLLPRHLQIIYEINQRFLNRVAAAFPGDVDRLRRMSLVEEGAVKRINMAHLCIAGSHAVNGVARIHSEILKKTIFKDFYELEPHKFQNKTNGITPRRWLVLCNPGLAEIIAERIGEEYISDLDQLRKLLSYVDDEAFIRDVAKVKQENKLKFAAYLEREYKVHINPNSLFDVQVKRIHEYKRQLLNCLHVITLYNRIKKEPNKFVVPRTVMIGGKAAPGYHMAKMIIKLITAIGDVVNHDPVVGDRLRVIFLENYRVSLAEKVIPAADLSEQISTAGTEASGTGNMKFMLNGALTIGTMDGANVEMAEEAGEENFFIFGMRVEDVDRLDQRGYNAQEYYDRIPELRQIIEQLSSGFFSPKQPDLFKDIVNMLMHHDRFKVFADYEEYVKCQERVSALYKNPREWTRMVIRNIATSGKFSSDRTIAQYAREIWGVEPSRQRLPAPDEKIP
## Result 3.26

## Task // fetch pKi for O=C1NC(=O)[C@@]2(C[C@H](O)[C@@H]([C@@H](O)CO)O2)N1 ; system: Glycogen phosphorylase, muscle form (Oryctolagus cuniculus)
## Result 2.09

## Task // fetch pKi for O=C1NC(=O)[C@]2(C[C@H](O)[C@@H]([C@@H](O)CO)O2)N1 ; system: Glycogen phosphorylase, muscle form (Oryctolagus cuniculus)
## Result 0.66
